# ASSAY_TARGET: MAO-A (amine oxidase [flavin-containing] A) (Homo sapiens)
# Sequence (P21397 whole entry): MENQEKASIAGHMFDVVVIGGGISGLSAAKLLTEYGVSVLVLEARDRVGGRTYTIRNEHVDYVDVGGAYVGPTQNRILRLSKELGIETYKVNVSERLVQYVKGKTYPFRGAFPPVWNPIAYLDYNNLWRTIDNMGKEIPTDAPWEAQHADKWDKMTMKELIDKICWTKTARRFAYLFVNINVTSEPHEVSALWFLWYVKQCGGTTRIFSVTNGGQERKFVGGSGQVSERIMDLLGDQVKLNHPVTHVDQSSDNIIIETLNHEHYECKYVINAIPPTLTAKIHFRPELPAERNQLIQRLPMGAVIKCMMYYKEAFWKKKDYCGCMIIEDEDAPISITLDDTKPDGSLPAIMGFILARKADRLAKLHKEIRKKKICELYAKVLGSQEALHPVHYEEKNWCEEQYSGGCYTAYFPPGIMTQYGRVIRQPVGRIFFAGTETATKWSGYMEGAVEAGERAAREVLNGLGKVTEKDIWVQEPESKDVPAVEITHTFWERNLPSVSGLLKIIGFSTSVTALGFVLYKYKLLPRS
# ASSAY_INFO: Agonist activity in the Eurofins Cerep SafetyScreen44 (BI) against MAO-A_ANTAG by Scintillation counting (Cerep_443)
# Parameters: scale not given: the % may be the effect or the level left
# MEASUREMENT_SETUP: rat; compound concentration 10 uM; target entry is the homologue from another species; read-out: % Ctrl
TEST_READOUT: activity at 10 µM

Return reported activity at 10 µM; argument: Cc1nnc2n1-c1sc3c(c1C(c1ccccc1Cl)=NC2)C[C@@H](C(=O)N1CCOCC1)C3 107% (not active)

* * *

Below: a set of entries, each annotated with reported activity at 10 µM.
# ASSAY_TARGET: L-type calcium channel (dihydropyridine site), Cav1.2 alpha-1C (Rattus norvegicus, UniProt P22002)
# Sequence (P22002 whole entry): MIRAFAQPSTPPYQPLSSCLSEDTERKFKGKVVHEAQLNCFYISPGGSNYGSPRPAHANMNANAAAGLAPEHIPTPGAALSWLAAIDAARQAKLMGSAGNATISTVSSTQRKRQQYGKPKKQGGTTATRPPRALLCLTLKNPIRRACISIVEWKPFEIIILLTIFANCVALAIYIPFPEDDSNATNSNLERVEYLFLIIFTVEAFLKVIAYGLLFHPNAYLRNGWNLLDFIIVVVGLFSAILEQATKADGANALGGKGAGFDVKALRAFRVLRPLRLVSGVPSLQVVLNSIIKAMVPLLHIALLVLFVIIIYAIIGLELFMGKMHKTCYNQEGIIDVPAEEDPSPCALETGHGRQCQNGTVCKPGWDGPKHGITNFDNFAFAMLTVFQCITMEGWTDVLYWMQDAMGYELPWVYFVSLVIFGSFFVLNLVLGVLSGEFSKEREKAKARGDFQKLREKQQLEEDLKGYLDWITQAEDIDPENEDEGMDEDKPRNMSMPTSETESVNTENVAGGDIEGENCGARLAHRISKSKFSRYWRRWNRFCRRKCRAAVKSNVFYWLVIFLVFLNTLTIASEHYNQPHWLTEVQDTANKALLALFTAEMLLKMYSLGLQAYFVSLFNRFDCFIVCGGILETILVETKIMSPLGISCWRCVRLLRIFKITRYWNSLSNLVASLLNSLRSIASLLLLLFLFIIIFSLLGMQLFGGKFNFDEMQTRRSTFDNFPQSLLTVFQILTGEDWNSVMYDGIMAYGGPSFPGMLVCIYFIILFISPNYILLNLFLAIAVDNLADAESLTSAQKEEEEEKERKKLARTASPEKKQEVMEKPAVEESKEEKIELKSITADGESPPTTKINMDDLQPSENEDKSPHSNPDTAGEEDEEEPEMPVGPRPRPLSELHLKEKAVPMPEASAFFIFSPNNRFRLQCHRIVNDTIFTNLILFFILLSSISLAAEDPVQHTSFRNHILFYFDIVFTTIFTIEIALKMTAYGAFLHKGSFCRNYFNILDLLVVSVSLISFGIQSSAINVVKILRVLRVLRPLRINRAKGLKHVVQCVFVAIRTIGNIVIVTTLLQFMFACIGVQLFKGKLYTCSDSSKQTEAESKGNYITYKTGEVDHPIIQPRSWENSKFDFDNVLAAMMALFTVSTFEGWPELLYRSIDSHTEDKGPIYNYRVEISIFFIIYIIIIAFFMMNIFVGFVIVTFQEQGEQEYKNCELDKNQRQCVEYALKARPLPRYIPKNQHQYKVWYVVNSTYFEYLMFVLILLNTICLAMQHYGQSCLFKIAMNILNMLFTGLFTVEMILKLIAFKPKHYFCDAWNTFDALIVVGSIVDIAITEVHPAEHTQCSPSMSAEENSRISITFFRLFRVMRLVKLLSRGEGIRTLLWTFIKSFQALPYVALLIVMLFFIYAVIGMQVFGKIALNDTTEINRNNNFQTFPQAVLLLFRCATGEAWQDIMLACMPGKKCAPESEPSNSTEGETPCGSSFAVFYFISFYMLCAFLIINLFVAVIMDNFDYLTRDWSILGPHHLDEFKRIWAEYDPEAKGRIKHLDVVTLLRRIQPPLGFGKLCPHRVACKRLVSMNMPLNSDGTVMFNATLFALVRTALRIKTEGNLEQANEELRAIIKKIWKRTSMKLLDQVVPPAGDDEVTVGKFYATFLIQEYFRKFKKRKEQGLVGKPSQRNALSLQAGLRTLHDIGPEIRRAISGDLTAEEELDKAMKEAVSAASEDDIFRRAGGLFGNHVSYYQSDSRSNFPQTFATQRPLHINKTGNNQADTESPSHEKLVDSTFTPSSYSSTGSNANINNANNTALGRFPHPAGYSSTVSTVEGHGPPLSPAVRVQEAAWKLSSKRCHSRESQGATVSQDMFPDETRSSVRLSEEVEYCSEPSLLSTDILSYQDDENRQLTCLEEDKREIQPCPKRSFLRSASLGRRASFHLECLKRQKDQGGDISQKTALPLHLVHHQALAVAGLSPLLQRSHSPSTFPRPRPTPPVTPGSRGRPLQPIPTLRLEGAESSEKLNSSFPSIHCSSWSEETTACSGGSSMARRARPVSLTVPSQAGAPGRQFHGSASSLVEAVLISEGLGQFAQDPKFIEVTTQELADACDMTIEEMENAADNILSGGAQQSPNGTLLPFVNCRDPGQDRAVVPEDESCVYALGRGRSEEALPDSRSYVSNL
# ASSAY_INFO: Inhibitor of CA+/DHPSI/R in the Eurofins Cerep SafetyScreen44 (BI) by Radioactive Assay (Cerep_161)
# Type: protein assay
# Set-up: scale not given: the % may be the effect or the level left
# MEASUREMENT_SETUP: rat brain, probe [3H](+)PN200-110, compound concentration 10 uM, read-out: % Ctrl

Cc1nnc2n1-c1sc(CCC(=O)N3CCOCC3)cc1C(c1ccccc1Cl)=NC2 [APAFANT] | 106% (not active)

From here, focus on the item given below.
State the recorded activity at 10 µM for this entry: Cc1nnc2n1-c1sc3c(c1C(c1ccccc1Cl)=NC2)C[C@@H](C(=O)N1CCOCC1)C3 103% (not active)
